# Test system: M21
# PROTOCOL_TEXT: Antiproliferative activity against human M21 cells after 48 hrs by sulforhodamine B assay
# Type: functional, cell-based
# STUDY_CONDITIONS: M21, 48 h
Kindly supply the reported pIC50 values for the records listed here.
Give bare numbers, as −log10 of the molar value.

Example cases with answers are listed next.
Look up pIC50: O=C1NCCN1c1ccc(S(=O)(=O)Oc2cc(Cl)cc(Cl)c2)cc1
8.09

Again, but for CCCOc1ccc(OS(=O)(=O)c2ccc(N3CCNC3=O)cc2)cc1
7.02

Again, but for CCOc1ccccc1OS(=O)(=O)c1ccc(N2CCNC2=O)cc1
7.62

Again, but for O=C1NCCN1c1ccc(S(=O)(=O)Oc2ccccc2[N+](=O)[O-])cc1
6.82

Look at each molecule and report its pIC50.
1. Cc1cc(OS(=O)(=O)c2ccc(N3CCNC3=O)cc2)cc(C)c1C
2. O=C1NCCN1c1ccc(S(=O)(=O)Oc2c(F)c(F)c(F)c(F)c2F)cc1
3. O=C1NCCN1c1ccc(S(=O)(=O)Oc2cccc(F)c2)cc1

7.82
6.66
7.51

Look at each molecule and report its pIC50.
1. CCOc1ccc(OS(=O)(=O)c2ccc(N3CCNC3=O)cc2)cc1
2. CCC(C)c1ccc(OS(=O)(=O)c2ccc(N3CCNC3=O)cc2)cc1 (stereo not given)

7.41
6.08

====

# Test system: MDA-MB-231
# PROTOCOL_TEXT: Antiproliferative activity against human MDA-MB-231 cells after 48 hrs by sulforhodamine B assay
# Type: functional, cell-based
# STUDY_CONDITIONS: MDA-MB-231, 48 h
MEASURED_ATTRIBUTE: IC50 (nM)
One number for each entry, in nM.

Example cases with answers are listed next.
Look up IC50: Cc1ccc(C)c(OS(=O)(=O)c2ccc(N3CCNC3=O)cc2)c1
69

Again, but for COc1cc(OC)cc(OS(=O)(=O)c2ccc(N3CCNC3=O)cc2)c1
14

Again, but for O=C1NCCN1c1ccc(S(=O)(=O)Oc2c(F)cccc2F)cc1
100

Next:
Look up IC50: COc1cc(OS(=O)(=O)c2ccc(N3CCNC3=O)cc2)cc(OC)c1OC
9.4

====

# Test system: M21
# PROTOCOL_TEXT: Antiproliferative activity against human M21 cells after 48 hrs by sulforhodamine B assay
# Type: functional, cell-based
# STUDY_CONDITIONS: M21, 48 h
MEASURED_ATTRIBUTE: IC50 (nM)
One number for each entry, in nM.

Example cases with answers are listed next.
Look up IC50: CCc1ccc(OS(=O)(=O)c2ccc(N3CCNC3=O)cc2)cc1
120

Again, but for COc1cc(OS(=O)(=O)c2ccc(N3CCNC3=O)cc2)cc(OC)c1OC
4

Again, but for COc1cc(OC)cc(OS(=O)(=O)c2ccc(N3CCNC3=O)cc2)c1
4.3

Next:
Look up IC50: O=C1NCCN1c1ccc(S(=O)(=O)Oc2cccc(Cl)c2)cc1
9.2

====

# Test system: M21
# PROTOCOL_TEXT: Antiproliferative activity against human M21 cells after 48 hrs by sulforhodamine B assay
# Format: functional, cell-based
# STUDY_CONDITIONS: M21, 48 h
Kindly supply the reported IC50 values for the records listed here.

Look up IC50: O=C1NCCCN1c1ccc(S(=O)(=O)Oc2c(Cl)cc(Cl)cc2Cl)cc1
> 1000 nM

Again, but for O=C1NCCN1c1ccc(S(=O)(=O)Oc2ccccc2)cc1
> 1000 nM

Next:
Look up IC50: O=C1NCCN1c1ccc(S(=O)(=O)Oc2ccncc2)cc1
> 1000 nM
